Target Entity: recombinant human Meningioma Expressed Antigen 5 (MGEA5), also referred to as O-GlcNAcase (OGA) (Homo sapiens)
Construct: Full length OGA enzyme was purchased at OriGene (cat # TP322411); purchased OriGene TP322411
Sequence (O60502 1-916): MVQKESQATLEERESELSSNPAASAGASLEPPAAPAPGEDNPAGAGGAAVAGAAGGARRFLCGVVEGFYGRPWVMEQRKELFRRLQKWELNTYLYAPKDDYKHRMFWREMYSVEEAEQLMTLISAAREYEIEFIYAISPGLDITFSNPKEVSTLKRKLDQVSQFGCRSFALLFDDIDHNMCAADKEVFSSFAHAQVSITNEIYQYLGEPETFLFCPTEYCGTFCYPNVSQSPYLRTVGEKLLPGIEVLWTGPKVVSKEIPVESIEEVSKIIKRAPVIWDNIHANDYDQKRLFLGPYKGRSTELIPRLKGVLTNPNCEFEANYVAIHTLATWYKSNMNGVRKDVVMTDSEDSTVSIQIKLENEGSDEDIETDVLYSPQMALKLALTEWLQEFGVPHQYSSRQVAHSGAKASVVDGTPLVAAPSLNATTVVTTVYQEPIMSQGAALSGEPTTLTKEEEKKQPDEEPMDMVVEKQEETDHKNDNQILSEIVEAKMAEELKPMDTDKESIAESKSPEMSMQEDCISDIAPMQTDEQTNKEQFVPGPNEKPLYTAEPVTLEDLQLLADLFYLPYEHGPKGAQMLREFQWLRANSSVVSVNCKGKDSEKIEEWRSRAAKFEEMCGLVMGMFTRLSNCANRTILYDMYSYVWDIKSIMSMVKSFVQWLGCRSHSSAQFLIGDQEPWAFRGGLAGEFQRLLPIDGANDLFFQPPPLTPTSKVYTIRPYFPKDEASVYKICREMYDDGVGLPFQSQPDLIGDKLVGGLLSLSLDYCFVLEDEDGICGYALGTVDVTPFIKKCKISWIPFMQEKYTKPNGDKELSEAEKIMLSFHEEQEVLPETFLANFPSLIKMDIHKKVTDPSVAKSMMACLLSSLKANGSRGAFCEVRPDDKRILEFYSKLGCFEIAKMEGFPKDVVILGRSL
Measurement Protocol: OGA biochemical assay: inhibition of FM-GlcNAc hydrolysis, fluorescence; protocol A (10 nM OGA, 1 h) or protocol B (2 nM OGA, 6 h)
Applied Conditions: Enzymatic protocol B (2 nM OGA, 6 h)

| Compound | Emax (%) |
| --- | --- |
| CC(=O)Nc1ncc(CN2CC[C@H](Cc3nc(C)ccc3C(F)(F)F)C2)s1 | 100 |
| COc1cc(C[C@H]2CCN(Cc3cnc(NC(C)=O)s3)C2)cc(C)n1 | 101 |
| CC(=O)Nc1ncc(CN2CCC(OCc3cc(C)nc(C)c3)C2)s1 (centres unmarked) | 102 |
| CC(=O)Nc1ncc(CN2CCC[C@H](Cc3ccc(F)c(C)n3)C2)s1 | 102 |
| CC(=O)Nc1ncc(CN2CC[C@@H](Nc3cc(C)nc(C)c3)C2)s1 | 99.8 |
| CC(=O)Nc1ncc(CN2CCC[C@H](Cc3cc(C)nc(C)n3)C2)s1 (single isomer, unassigned) | 101 |
| CC(=O)Nc1ncc(CN2CCCC(Oc3cc(C)nc(C)c3)C2)s1 (centres unmarked) | 101 |
| CC(=O)Nc1ncc(CN2CCCC(COc3cc(C)nc(C)c3)C2)[nH]1 (racemic) [compound 132] | 91.9 |
